Tested on: PC-3
Experiment: Cytotoxicity against human PC3 cells at 10^-6 M after 72 hrs by MTS assay
Format: functional
Settings: PC-3, 72 h, read-out: GI
Recorded inhibition of growth at 1 µM values for a group of compounds are listed next.
value_type: inhibition of growth at 1 µM

>>> test_result("COc1cc(C(=C(COC(C)=O)COC(C)=O)c2ccc3c(c2)OCO3)cc(OC)c1OC")
"3%"
>>> test_result("COc1cc(C(=C(CO)CO)c2ccc3ccccc3c2)cc(OC)c1OC")
"10%"
>>> test_result("COc1ccc(/C(=C2\\O[C@@H]([C@H](O)CO)[C@H]3OC(C)(C)O[C@@H]23)c2cc(OC)c(OC)c(OC)c2)cc1O")
"0%"
>>> test_result("COc1cc(/C(=C2/O[C@@H]([C@H](O)CO)[C@H]3OC(C)(C)O[C@@H]23)c2cccc([N+](=O)[O-])c2)cc(OC)c1OC")
"1%"
>>> test_result("COc1cc(/C(=C2\\O[C@@H]([C@H]3COC(C)(C)O3)[C@H]3OC(C)(C)O[C@@H]23)c2cccc([N+](=O)[O-])c2)cc(OC)c1OC")
"2%"
>>> test_result("COc1cc(C(=C(COC(C)=O)COC(C)=O)c2cc(OC)c(OC)c(OC)c2)cc(OC)c1OC")
"7%"
>>> test_result("COc1cc(C(=C(COC(C)=O)COC(C)=O)c2ccc3ccccc3c2)cc(OC)c1OC")
"18%"

###

Test: Cytotoxicity against human HL60R cells at 10^-5 M after 72 hrs by MTS assay
Assay type: functional, HL-60
Conditions: read-out: GI
Recorded inhibition of growth at 10 µM values for a group of compounds are listed next.
value_type: inhibition of growth at 10 µM

>>> test_result("COc1cc(C(=C(CO)CO)c2ccc3ccccc3c2)cc(OC)c1OC")
"89%"
>>> test_result("COc1ccc(/C(=C2\\O[C@@H]([C@H](O)CO)[C@H]3OC(C)(C)O[C@@H]23)c2cc(OC)c(OC)c(OC)c2)cc1O")
"95%"
>>> test_result("COc1cc(C(=C(COC(C)=O)COC(C)=O)c2ccc3ccccc3c2)cc(OC)c1OC")
"41%"
>>> test_result("COc1cc(C(=C(COC(C)=O)COC(C)=O)c2ccc3c(c2)OCO3)cc(OC)c1OC")
"24%"
>>> test_result("COc1cc(C(=C(COC(C)=O)COC(C)=O)c2cc(OC)c(OC)c(OC)c2)cc(OC)c1OC")
"36%"
>>> test_result("COc1cc(/C(=C2/O[C@@H]([C@H](O)CO)[C@H]3OC(C)(C)O[C@@H]23)c2cccc([N+](=O)[O-])c2)cc(OC)c1OC")
"11%"
>>> test_result("COc1cc(/C(=C2\\O[C@@H]([C@H]3COC(C)(C)O3)[C@H]3OC(C)(C)O[C@@H]23)c2cccc([N+](=O)[O-])c2)cc(OC)c1OC")
"29%"

###

Recorded pIC50 values for a group of compounds are listed next.
Test system: K562
Assay: Antiproliferative activity against human K562 cells after 72 hrs by MTS assay
Assay type: functional, cell-based
Conditions: K562, 72 h
pIC50: −log10 of the molar value.
value_type: pIC50

>>> test_result("COc1ccc(C(=C(COC(C)=O)COC(C)=O)c2cc(OC)c(OC)c(OC)c2)cc1O")
6.74
>>> test_result("COc1ccc(/C(=C2\\O[C@@H]([C@H](O)CO)[C@H]3OC(C)(C)O[C@@H]23)c2cc(OC)c(OC)c(OC)c2)cc1O")
6.35
>>> test_result("COc1cc(C(=C(CO)CO)c2ccc3ccccc3c2)cc(OC)c1OC")
6.77
